# Species on record: Rattus norvegicus
# experimentNotes: The distribution of the 131 I-labeled compound at 5 min was evaluated in rat heart as Percent of injected dose per gram in the organ
# Format: ADME, organism-based
# conditionSet: in vivo
Use condition met when the recorded Dose is no lower than 0.9%; use condition not met when it is lower.

| compound | classification |
| --- | --- |
| CCCCCCNC(C)Cc1cc(OC)c(I)cc1OC (stereo not drawn) | condition met |
| COc1cc(CC(C)NCCCN(C)C)c(OC)cc1I (stereo not drawn) | condition met |
| COc1cc(CC(C)NC(C)C)c(OC)cc1I (stereo not drawn) | condition met |
| CCN(CC)C(C)Cc1cc(OC)c(I)cc1OC (stereo not drawn) | condition not met |
| CNC(C)Cc1cc(OC)c(I)cc1OC (stereo not drawn) | condition met |
| COc1cc(CC(C)N(C)Cc2ccccc2)c(OC)cc1I (stereo not drawn) | condition met |
| COc1cc(CC(C)N(C)C(C)C)c(OC)cc1I (stereo not drawn) | condition not met |
| COc1cc(CC(C)NCC#N)c(OC)cc1I (stereo not drawn) | condition not met |
| COc1cc(CC(C)NN)c(OC)cc1I (stereo not drawn) | condition not met |
| COc1cc(CC(C)NCc2ccccc2)c(OC)cc1I (stereo not drawn) | condition met |
| COc1cc(CC(C)N)c(OC)cc1I (stereo not drawn) | condition not met |
| COc1cc(CC(C)N(C)C)c(OC)cc1I (stereo not drawn) | condition not met |

* * *

// Dose lookup, one value per entry
# Species on record: Rattus norvegicus
# experimentNotes: The distribution of the 131 I-labeled compound at 30 min was evaluated in rat kidney as Percent of injected dose per gram in the organ
# Assay type: ADME, organism-based
# conditionSet: in vivo, 0.5 h

| compound | Dose, % |
| --- | --- |
| COc1cc(CC(C)NN)c(OC)cc1I (centres undefined) | 0.77 |
| COc1cc(CC(C)N(C)Cc2ccccc2)c(OC)cc1I (centres undefined) | 0.52 |
| COc1cc(CC(C)NCC#N)c(OC)cc1I (centres undefined) | 1.2 |
| COc1cc(CC(C)NCC2CC2)c(OC)cc1I (centres undefined) | 0.77 |
| COc1cc(CC(C)N(C)C)c(OC)cc1I (centres undefined) | 0.9 |
| COc1cc(CC(C)N(C)C(C)C)c(OC)cc1I (centres undefined) | 0.38 |
| COc1cc(CC(C)N)c(OC)cc1I (centres undefined) | 1.1 |
| COc1cc(CC(C)NCCCN(C)C)c(OC)cc1I (centres undefined) | 2 |
| CCN(CC)C(C)Cc1cc(OC)c(I)cc1OC (centres undefined) | 0.39 |

* * *

# Species on record: Rattus norvegicus
# experimentNotes: Ratio of distribution of the [131I]-labeled compound at 30 min in rat kidney over uptake in blood
# Type: ADME, organism-based
# conditionSet: other tissue, 0.5 h
// Ratio lookup, one value per entry

| molecule | Ratio |
| --- | --- |
| COc1cc(CC(C)NCC#N)c(OC)cc1I (stereo not given) | 9.2 |
| COc1cc(CC(C)NCC2CC2)c(OC)cc1I (stereo not given) | 8.6 |
| COc1cc(CC(C)N(C)C)c(OC)cc1I (stereo not given) | 8.4 |
| COc1cc(CC(C)N(C)Cc2ccccc2)c(OC)cc1I (stereo not given) | 5.8 |
| CCCCCCCCCCCCNC(C)Cc1cc(OC)c(I)cc1OC (stereo not given) | 1.4 |
| COc1cc(CC(C)N)c(OC)cc1I (stereo not given) | 18 |
| COc1cc(CC(C)NO)c(OC)cc1I (stereo not given) | 7.5 |
| COc1cc(CC(C)NN)c(OC)cc1I (stereo not given) | 4.5 |
| COc1cc(CC(C)N(C)C(C)C)c(OC)cc1I (stereo not given) | 0.72 |
| COc1cc(CC(C)NCCCN(C)C)c(OC)cc1I (stereo not given) | 29 |
